- System name: prostaglandin synthetase (Ovis aries)
- Construct: originating in sheep seminal vesicle; from tissue; host or cells: sheep seminal vesicle
- Sequence (P05979 25-600): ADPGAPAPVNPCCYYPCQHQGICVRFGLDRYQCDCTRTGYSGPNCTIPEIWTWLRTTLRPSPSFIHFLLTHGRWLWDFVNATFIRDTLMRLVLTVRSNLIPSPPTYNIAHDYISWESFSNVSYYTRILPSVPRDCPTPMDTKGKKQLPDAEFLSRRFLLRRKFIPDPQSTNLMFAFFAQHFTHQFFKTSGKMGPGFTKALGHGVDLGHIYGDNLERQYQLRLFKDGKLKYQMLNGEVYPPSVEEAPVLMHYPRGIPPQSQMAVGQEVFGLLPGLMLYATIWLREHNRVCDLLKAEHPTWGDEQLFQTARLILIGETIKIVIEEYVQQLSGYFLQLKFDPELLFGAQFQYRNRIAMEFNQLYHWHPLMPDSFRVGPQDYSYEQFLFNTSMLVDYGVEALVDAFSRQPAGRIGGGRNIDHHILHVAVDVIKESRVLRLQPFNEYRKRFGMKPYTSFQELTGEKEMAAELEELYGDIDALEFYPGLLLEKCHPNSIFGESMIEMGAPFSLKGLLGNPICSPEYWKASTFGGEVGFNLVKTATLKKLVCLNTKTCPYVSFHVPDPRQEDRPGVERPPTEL
- Protocol details: Effect of inhibiting biosynthesis of prostaglandin E2
- Assay type: biochemical, sheep
- Condition info: 10^-7; 10 minutes incubation
Recorded metric: Inhibition ratio (%)

1) O=[N+]([O-])c1ccc(-c2sc(NS(=O)(=O)C(F)(F)F)nc2-c2ccccc2)cc1 [Ex. 17]: 48.1
2) O=S(=O)(Nc1nc(-c2ccccc2)c(-c2ccccc2)s1)C(F)(F)F [Ex. 1]: 45.5
3) COc1ccc(-c2sc(NS(=O)(=O)C(F)(F)F)nc2-c2ccccc2)cc1 [Ex. 32]: 52.2
4) O=S(=O)(Nc1nc(-c2ccccc2)c(-c2ccc(F)cc2)s1)C(F)(F)F [Ex. 37]: 43.9
5) COc1ccc(-c2nc(NS(=O)(=O)C(F)(F)F)sc2-c2ccccc2)cc1 [Ex. 10]: 57.2
